B1: CPEB3 Ribozyme (parent)
chain: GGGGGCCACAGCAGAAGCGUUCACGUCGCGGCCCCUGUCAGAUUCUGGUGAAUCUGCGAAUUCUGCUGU

variants of: B1; test: self-cleavage, relative activity (ratio to wild type); higher = more cleavage; co-transcriptional
Metric name: self-cleavage
Enter the number alone.

State its self-cleavage for this variant: G47A C63G
0.922

Annotate the variant G5A A15G with its measured self-cleavage.
0.846

Given G5U G56C , respond with its self-cleavage.
0.163

Please supply the value of reported self-cleavage for the item C27U U61A
0.22

Let me know recorded self-cleavage for G2C C22G , thanks.
0.02

Check the records and state self-cleavage for C7A G58C
0.464

Report measured self-cleavage; entry is A13U C33U
0.894

Please report the measured self-cleavage for G3U C33G
0.0603

Specify reported self-cleavage for the variant shown: C24U C39U
0.549

Give the reported self-cleavage for this variant. G30A G37C
0.19

Find the measured self-cleavage of A60U G68C and report it.
0.556

Consider the variant G5C C7U . State its measured self-cleavage.
0.156

Report self-cleavage, nothing else, for this variant: A8C A59C
0.725

Please look at this variant and report its self-cleavage: G5A U49C
0.969

Provide one value: measured self-cleavage of G5A G17A
0.166

Read the entry G17U C33G and write its reported self-cleavage.
0.224

Given the variant G50A C63U , write its reported self-cleavage.
0.986

Hello, please tell me recorded self-cleavage for this one: C7A U43A
0.266

Tell us which self-cleavage value is on record for G19A C33G
0.172

Report self-cleavage, nothing else, for this variant: C12A U64C
0.58

Give me measured self-cleavage, please, for this variant: G14A C24G
0.148

Note self-cleavage for the variant shown: G2U U49G
0.0431

FYI, the data here is from the RNAGym collection of RNA variant scans (doi:10.7554/elife.80360).
